Reference for the values: paper PMC4336329

Target: human ether-à-go-go-related gene (hERG) potassium channel (human, UniProt Q12809)
Sequence (Q12809 whole entry, looked up): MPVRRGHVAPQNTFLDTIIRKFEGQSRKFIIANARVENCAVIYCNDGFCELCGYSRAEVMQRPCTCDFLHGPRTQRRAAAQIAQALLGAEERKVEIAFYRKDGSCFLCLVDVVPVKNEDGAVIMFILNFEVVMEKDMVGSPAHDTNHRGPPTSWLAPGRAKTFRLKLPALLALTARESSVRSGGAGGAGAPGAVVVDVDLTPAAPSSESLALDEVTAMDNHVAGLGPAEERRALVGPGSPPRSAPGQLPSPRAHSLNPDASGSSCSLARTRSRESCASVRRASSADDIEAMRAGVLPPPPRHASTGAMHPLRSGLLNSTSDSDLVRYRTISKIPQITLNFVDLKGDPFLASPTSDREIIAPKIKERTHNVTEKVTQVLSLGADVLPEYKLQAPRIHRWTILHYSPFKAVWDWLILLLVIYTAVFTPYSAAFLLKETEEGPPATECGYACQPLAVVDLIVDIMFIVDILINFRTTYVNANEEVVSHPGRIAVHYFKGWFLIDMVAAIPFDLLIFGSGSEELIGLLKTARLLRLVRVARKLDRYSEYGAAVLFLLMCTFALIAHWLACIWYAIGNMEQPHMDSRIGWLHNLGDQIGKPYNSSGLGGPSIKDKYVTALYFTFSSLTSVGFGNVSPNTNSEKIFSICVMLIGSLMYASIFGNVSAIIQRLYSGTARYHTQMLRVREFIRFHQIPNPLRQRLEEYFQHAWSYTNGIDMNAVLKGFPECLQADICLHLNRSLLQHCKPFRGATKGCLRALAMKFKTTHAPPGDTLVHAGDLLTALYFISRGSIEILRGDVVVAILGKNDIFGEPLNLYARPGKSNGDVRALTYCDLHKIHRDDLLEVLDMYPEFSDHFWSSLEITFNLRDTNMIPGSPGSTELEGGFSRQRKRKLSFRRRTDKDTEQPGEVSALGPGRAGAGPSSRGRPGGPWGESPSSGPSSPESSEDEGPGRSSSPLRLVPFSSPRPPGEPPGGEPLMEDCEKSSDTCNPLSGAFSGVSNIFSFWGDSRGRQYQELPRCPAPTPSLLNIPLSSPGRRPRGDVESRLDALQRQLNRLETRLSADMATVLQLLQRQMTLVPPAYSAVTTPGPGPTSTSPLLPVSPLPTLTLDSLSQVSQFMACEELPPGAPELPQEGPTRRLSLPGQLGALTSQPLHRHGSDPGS
Test: primary screen, population patch clamp on CHO cells stably expressing hERG; higher = less effect of the substance
The whole screen tested about 310,000 compounds, of which about 2,200 (0.71%) showed an effect of 50% or more. Effects have a minus sign here. This excerpt belongs to a sample that is enriched for strong results.
Parameter: hERG current change (%, negative = inhibition) at 1uM. Scope: all listed entries.
Report the figure in % without appending any unit label.

# Compound, System Under Test, Output Unit, Recorded Number
data = [
    ("O=C(c1sc2cccc(F)c2c1Cl)N1CCN(c2ncccn2)CC1", "human ether-à-go-go-related gene (hERG) potassium channel (human, UniProt Q12809)", "%", -65.4),
]

Fill in the recorded hERG current change (%, negative = inhibition) at 1uM for this compound, with human ether-à-go-go-related gene (hERG) potassium channel (human, UniProt Q12809) as test system: `CCC(=O)Nc1ccc(NC(=S)NC(=O)/C=C/c2ccco2)cc1`
6

hERG current change (%, negative = inhibition) at 1uM of `CCOc1cc(/C=N/NC(=O)CNc2ccc(C)cc2)ccc1OC(=O)c1ccccc1` on human ether-à-go-go-related gene (hERG) potassium channel (human, UniProt Q12809)?
-0.419

---

Target: human ether-à-go-go-related gene (hERG) potassium channel (human, UniProt Q12809)
Assay: primary screen, population patch clamp on CHO cells stably expressing hERG; higher = less effect of the substance
About 2,200 (0.71%) of roughly 310,000 compounds showed an effect of 50% or more. Effects have a minus sign here. Shown is part of a subset that was picked to be rich in strong results.
# maps each entry to its hERG current change (%, negative = inhibition) at 1uM
Kindly provide the numeric value in % only, without the unit symbol.

# Smiles Record, Recorded Number
rows = [
    ("CN1CCN(C(=O)/C(=C/c2cccs2)NC(=O)c2ccco2)CC1", -62.1),
]

Kindly review the next compound as well.
Record request: hERG current change (%, negative = inhibition) at 1uM value, item `O=C(CSc1nc(-c2ccccc2)cc(=O)[nH]1)Nc1ccc(F)c(F)c1`
12.9

---

Target: human ether-à-go-go-related gene (hERG) potassium channel (human, UniProt Q12809)
Test: primary screen, population patch clamp on CHO cells stably expressing hERG; higher = less effect of the substance
Screen size: about 310,000 compounds; about 2,200 (0.71%) showed an effect of 50% or more. The effect is printed as a negative number. What follows is part of a selection rich in strong results, with near analogues and random picks from the rest.
hERG current change (%, negative = inhibition) at 1uM values by entry
Hi! Could you send only the number? It should be in %, unit omitted.

Given the entry `Cc1nn2c(NCCOCCO)c3c(nc2c1-c1ccccc1)CCC3` , what hERG current change (%, negative = inhibition) at 1uM was observed with human ether-à-go-go-related gene (hERG) potassium channel (human, UniProt Q12809)?
-9.29

Request body: readout hERG current change (%, negative = inhibition) at 1uM, system human ether-à-go-go-related gene (hERG) potassium channel (human, UniProt Q12809), query `Cc1sc2ncnc(NCC(C)(C)N3CCOCC3)c2c1C` . Return the value.
-63.6

What hERG current change (%, negative = inhibition) at 1uM appears in the records for this compound with human ether-à-go-go-related gene (hERG) potassium channel (human, UniProt Q12809)? `Cc1nn2c(NCCOCCO)c3c(nc2c1-c1ccccc1)CCCC3`
-75.3

Which hERG current change (%, negative = inhibition) at 1uM is reported with human ether-à-go-go-related gene (hERG) potassium channel (human, UniProt Q12809) for this entry: Cc1csc(N2CCCC2c2nc3cc(C(F)(F)F)ccc3n2CCOCCO)n1 (centres unmarked) ?
-62.8

For human ether-à-go-go-related gene (hERG) potassium channel (human, UniProt Q12809), provide hERG current change (%, negative = inhibition) at 1uM of `N#Cc1nc(COc2cccc(Cl)c2)oc1NCc1ccncc1` please.
-53.8

Form: Entry = `O=C(NNC(=O)c1cccs1)c1ccccc1` | System = human ether-à-go-go-related gene (hERG) potassium channel (human, UniProt Q12809) | hERG current change (%, negative = inhibition) at 1uM = ____
5.51
